Test system: SF-295 CNS
test_method_notes: NCI-60 one-dose screen, 48 h (100 = growth as untreated, 0 = no growth, -100 = all killed)
experimental_setup: 10 µM unless noted
The panel holds about 83,000 compounds, 20% with a hit somewhere; the sample as a whole holds those more often.
reported_property: growth (%)
Answer format: numeric, % implied, no suffix.

Input line: What value of growth has been recorded for this entry: O=C(CSc1nc2ccccc2c(=O)n1-c1ccc(Cl)cc1)N/N=C/c1ccc(N2CCCCC2)cc1
Output line: 76.4

Input line: What value of growth has been recorded for this entry: CN1CCN(Cc2ccc(NC(=O)c3cncc(C#Cc4cnc5ccc(NCCCO)nn45)c3)cc2C(F)(F)F)CC1
Output line: -12.1

Input line: What value of growth has been recorded for this entry: O=C(CCn1c[n+](CC(=O)c2ccc(F)cc2)c2ccccc21)Nc1cccc2cccnc12
Output line: 99.2

Input line: What value of growth has been recorded for this entry: COc1ccc(NC(=O)CSc2nnc(-c3ccc4nc(-c5ccccc5)[nH]c4c3)o2)cc1
Output line: 102

Input line: What value of growth has been recorded for this entry: COc1c(N2CC3CCCNC3C2)c(F)cc2c(=O)c(C(=O)N/N=C/c3ccccc3)cn(C3CC3)c12 (centres undefined)
Output line: 104

Input line: What value of growth has been recorded for this entry: N#Cc1cn(Cc2ccc(Cl)cc2Cl)c(C(=O)c2ccc(Br)cc2)c1N
Output line: 83.7

Input line: What value of growth has been recorded for this entry: O=C(NNc1nc2cc(F)ccc2n2c(CN3CCCC3)ccc12)c1cnccn1
Output line: 6.2

Input line: What value of growth has been recorded for this entry: CCC(CC)N1C(=O)/C(=c2\sc3n(c2=O)NC2C(N=3)N(CC)C(=O)N2CC)c2ccccc21 (centres undefined)
Output line: 20.3

Input line: What value of growth has been recorded for this entry: CCCCc1nc(/C=N/Nc2nc(Nc3ccccc3)nc(Nc3ccc(S(N)(=O)=O)cc3)n2)c(Cl)[nH]1
Output line: 102
